The reported numbers originate from PubChem BioAssay (NCI).

# Tested on: OVCAR-3 ovarian
# method: NCI tumour cell line growth inhibition, 48 h; in the data active means GI50 below about 0.43 µM; inactive means the rest
Classes used: 1 for active, -1 for inactive

>  <molecule>
CCOC(=O)Nc1c(C)nc2ccccn12

>  <class_assignment>
-1

$$$$
>  <molecule>
CCN(Cc1c(F)cccc1OC)c1ccc(CO)c(Cl)c1

>  <class_assignment>
1

$$$$
>  <molecule>
COc1cc2c(cc1OCCCCCN1CCN(c3ncnc4ccccc34)CC1)N=CC1CCCN1C2=O (stereo not drawn)

>  <class_assignment>
1

$$$$

----------
# Test system: IGROV1 ovarian
# method: NCI tumour cell line growth inhibition, 48 h
Documented TGI across a set of molecules

>  <molecule>
CC1OC(O[C@H]2C3C=CO[C@@H](OC4OC(CO)C(O)C(O)C4O)C3[C@@]3(COC(=O)/C=C/c4ccccc4)O[C@@H]23)C(O)C(O)C1O (stereo not given in full)

>  <TGI>
> 100 µM

$$$$
>  <molecule>
O=C1N(Cc2ccccc2)C2CSCC2N1Cc1ccccc1 (stereo not given)

>  <TGI>
> 100 µM

$$$$
>  <molecule>
Nc1c(S(=O)(=O)c2ccc(Cl)cc2)c2nc3ccccc3nc2n2ccnc12

>  <TGI>
> 100 µM

$$$$
>  <molecule>
Cc1cc(C[C@H]2O[C@@H]3OC(C)(C)O[C@@H]3[C@H]3OC(C)(C)O[C@H]32)c2ccccc2n1

>  <TGI>
> 100 µM

$$$$
>  <molecule>
O=S(=O)(OI(OI(OS(=O)(=O)C(F)(F)F)c1ccccc1)c1ccccc1)C(F)(F)F

>  <TGI>
> 100 µM

$$$$
>  <molecule>
CN1Nc2ccccc2CC1=O

>  <TGI>
> 100 µM

$$$$
>  <molecule>
O[C@H]1[C@H](O)[C@@H](O)CN2CC[C@H](O)[C@H]12

>  <TGI>
> 100 µM

$$$$
>  <molecule>
CN(Cc1cnc2nc(N)nc(N)c2n1)c1ccc(C(=O)N[C@@H](CCS(=O)(=O)O)C(=O)O)cc1

>  <TGI>
> 100 µM

$$$$
>  <molecule>
CC(C)=CCC1=C(O)c2ccccc2C(=O)C1=O

>  <TGI>
> 100 µM

$$$$
>  <molecule>
Cc1ccc2c(c1)c1ccc3c(c1n2C)C(=O)C=CC3=O

>  <TGI>
> 10 µM

$$$$
